Data credit: ChEMBL document CHEMBL2169781

- target_entity: Prostaglandin E synthase (Homo sapiens, UniProt O14684)
- Sequence (O14684 whole entry): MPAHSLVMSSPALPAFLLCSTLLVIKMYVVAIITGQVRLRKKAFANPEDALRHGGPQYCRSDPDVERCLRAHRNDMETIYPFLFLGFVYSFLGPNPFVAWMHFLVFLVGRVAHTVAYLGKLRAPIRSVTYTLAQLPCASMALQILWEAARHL
- measurement_description: Inhibition of mPGES-1 in human IL-1beta-stimulated A549 cell microsomes assessed as reduction of PGE2 formation from PGH2 after 15 mins by RP-HPLC analysis
assay_readout: pIC50
Worth noting: pIC50 values are minus log10 of concentrations stated in mol/L.

**Q:** Give the value of pIC50 reported for the following: CCCC/C(=C\c1cc(OCCc2ccccc2)cc(OCCc2ccccc2)c1)C(=O)O
**A:** 5.55

**Q:** Return value of pIC50 for input CCCCC(Sc1nc(OCCC2CCCCC2)cc(OCCC2CCCCC2)n1)C(=O)O (stereo not given) , no commentary.
**A:** 5.62

**Q:** Identify the reported pIC50 for the following entry. CCCCC(Sc1nc(OCCCc2ccccc2)cc(OCCCc2ccccc2)n1)C(=O)O (stereo not given)
**A:** 5.66

**Q:** Supply pIC50 value. Item: CCCC/C(=C\c1cc(OCCc2ccccc2)ccc1OCCc1ccccc1)C(=O)O
**A:** 5.82
